# SYSTEM: P2X7 (Homo sapiens (Human))
# PROCEDURE_SUMMARY: P2X7 antagonism in human PBMCs (LPS + Bz-ATP induced IL-1β release, ELISA)
# Format: cell-based
# CONDITION: compound 10 μM, LPS 30 ng/ml, Bz-ATP 0.5 mM
MEASURE: PBMC 10 μM (% control)

Some solved cases for reference:
C[C@H]1Cc2c(nnn2-c2ncc(F)cn2)CN1C(=O)c1cc(C(F)(F)F)ccc1F (single isomer, unassigned) | 7.5
Cc1cccc(-n2nnc3c2CCN(C(=O)c2cccc(C(F)(F)F)c2Cl)[C@H]3C)n1 (single isomer, unassigned) | −0.4
Cn1nc2c(c1-c1cncnc1)CCN(C(=O)c1cccc(C(F)(F)F)c1Cl)C2 | 42.6
O=C(c1cccc(C(F)(F)F)c1Cl)N1CCc2c(nnn2-c2cc(F)ccn2)C1 | 8.3
C[C@H]1Cc2c(nnn2-c2ncc(F)cn2)CN1C(=O)c1cc(F)cc(C(F)(F)F)c1 | 2.2

[a] C[C@@H]1c2nnn(-c3ccn(C)n3)c2CCN1C(=O)c1cccc(C(F)(F)F)c1Cl (single isomer, unassigned)
[b] C[C@H]1Cc2c(nnn2-c2ncc(F)cn2)CN1C(=O)c1cccc(C(F)(F)F)c1F
Prompt line: Field: lower recorded PBMC 10 μM (% control) (choose a or b ) Let me know the label of the one you choose.
Response line: b

====

# SYSTEM: rat P2X7 (Rattus norvegicus (Rat), UniProt Q64663)
# Sequence (Q64663 whole entry): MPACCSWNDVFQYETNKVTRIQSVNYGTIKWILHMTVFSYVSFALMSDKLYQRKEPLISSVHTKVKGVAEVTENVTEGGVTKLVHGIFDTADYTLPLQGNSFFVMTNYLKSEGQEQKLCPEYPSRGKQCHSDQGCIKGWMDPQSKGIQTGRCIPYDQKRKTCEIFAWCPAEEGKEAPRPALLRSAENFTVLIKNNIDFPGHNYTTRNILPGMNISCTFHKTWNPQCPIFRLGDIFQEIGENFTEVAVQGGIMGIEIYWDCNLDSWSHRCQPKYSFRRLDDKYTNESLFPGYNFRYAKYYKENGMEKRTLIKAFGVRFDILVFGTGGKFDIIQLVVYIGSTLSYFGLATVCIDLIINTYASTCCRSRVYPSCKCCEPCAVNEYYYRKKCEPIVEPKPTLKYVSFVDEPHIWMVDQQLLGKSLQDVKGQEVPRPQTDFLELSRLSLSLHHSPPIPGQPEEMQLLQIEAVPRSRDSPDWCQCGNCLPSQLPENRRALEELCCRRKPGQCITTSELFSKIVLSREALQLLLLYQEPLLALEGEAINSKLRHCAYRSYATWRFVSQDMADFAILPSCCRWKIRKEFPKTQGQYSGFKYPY
# PROCEDURE_SUMMARY: Ca2+ flux (FLIPR) in 1321N1 cells expressing recombinant rat P2X7 channel;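 note: Calcium-4 dye fluorescence change read 180 s after agonist addition, following 30 min cell preincubation with test compound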
# CONDITION: 250 μM BzATP
pIC50: −log10 of the molar value.
MEASURE: pIC50

O=C(c1cccc(C(F)(F)F)c1F)N1CCc2c(nnn2-c2ccccn2)C1 | 6.00
Cc1c(C(=O)N2CCc3c(nnn3-c3ccccn3)C2)ccc(F)c1F | 5.35

[1] Cc1ccnc(-n2nnc3c2CCN(C(=O)c2cccc(C(F)(F)F)c2Cl)[C@@H]3C)n1
[2] CC1c2nnn(-c3ncccn3)c2C=CN1C(=O)c1cccc(C(F)(F)F)c1Cl (stereo not drawn)
Prompt line: // pick larger pIC50 from pair: 1 vs 2 Kindly give the label for the entry you pick.
Response line: 1
(1: 8.18, 2: 7.06)

====

# SYSTEM: UniProt Q99572
# PROCEDURE_SUMMARY: P2X7 antagonism in human PBMCs (LPS + Bz-ATP induced IL-1β release, ELISA)
# Assay type: cell-based
# CONDITION: compound 10 μM, LPS 30 ng/ml, Bz-ATP 0.5 mM
MEASURE: PBMC 10 μM (% control)

Recorded PBMC 10 μM (% control), per entry:
C[C@@H]1Cc2c(nnn2-c2ncc(F)cn2)CN1C(=O)c1ccc(F)c(Cl)c1Cl (single isomer, unassigned) [Example 214] | 8.2
CC1Cc2c(nnn2-c2ccccc2)CN1C(=O)c1cccc(C(F)(F)F)c1Cl (stereo not shown) [Example 290] | −11.2
O=C(c1cccc(C(F)(F)F)c1F)N1CCc2c(nc(C(F)(F)F)n2-c2ccccc2)C1 [Example 57] | 46.7
Cc1ccc(-n2nnc3c2CCN(C(=O)c2cccc(C(F)(F)F)c2Cl)C3C)nc1 (stereo not shown) [Example 301] | −2.2

[1] CC1c2nnn(-c3ncccn3)c2CCN1C(=O)c1ccc(Cl)cc1Cl (stereo not shown) [Example 283]
[2] C[C@H]1Cc2c(nnn2-c2ccc(F)cc2)[C@H](C)N1C(=O)c1cccc(C(F)(F)F)c1Cl [Example 285]
[3] Cc1ccnc(-n2nnc3c2CCN(C(=O)c2cccc(C(F)(F)F)c2F)C3C)n1 (stereo not shown) [Example 269]
Prompt line: Kindly order the items shown according to PBMC 10 μM (% control), from the highest value down. Please respond by ranking the labels in the order requested.
Response line: 3, 2, 1
(3: 16.3 % control, 2: −2.6 % control, 1: −6.3 % control)

====

# SYSTEM: P2X7 (Homo sapiens (Human), UniProt Q99572)
# Sequence (Q99572 whole entry): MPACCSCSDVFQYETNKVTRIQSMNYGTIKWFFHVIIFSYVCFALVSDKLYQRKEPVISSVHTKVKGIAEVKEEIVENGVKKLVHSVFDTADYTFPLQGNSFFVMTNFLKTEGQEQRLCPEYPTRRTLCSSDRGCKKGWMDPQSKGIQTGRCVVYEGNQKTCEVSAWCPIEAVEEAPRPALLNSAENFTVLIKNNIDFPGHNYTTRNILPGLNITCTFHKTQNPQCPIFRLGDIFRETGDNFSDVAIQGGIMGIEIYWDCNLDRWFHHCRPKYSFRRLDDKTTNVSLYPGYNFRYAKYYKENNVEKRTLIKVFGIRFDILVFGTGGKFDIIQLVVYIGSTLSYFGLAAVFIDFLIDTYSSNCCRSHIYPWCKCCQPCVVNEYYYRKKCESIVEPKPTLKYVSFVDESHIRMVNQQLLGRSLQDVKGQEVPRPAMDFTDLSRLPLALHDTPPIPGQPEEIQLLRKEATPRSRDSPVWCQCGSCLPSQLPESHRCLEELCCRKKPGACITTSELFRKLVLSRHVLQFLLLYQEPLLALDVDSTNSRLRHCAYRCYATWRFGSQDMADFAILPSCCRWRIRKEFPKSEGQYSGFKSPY
# PROCEDURE_SUMMARY: P2X7 antagonism in human PBMCs (LPS + Bz-ATP induced IL-1β release, ELISA)
# Type: cell-based
# CONDITION: compound 10 μM, LPS 30 ng/ml, Bz-ATP 0.5 mM
MEASURE: PBMC 10 μM (% control)

[1] Cn1nccc1-n1nnc2c1CCN(C(=O)c1cccc(C(F)(F)F)c1Cl)C2
[2] CC1CN(C(=O)c2cccc(Cl)c2Cl)Cc2nnn(-c3ccccc3)c21 (stereo not shown)
[3] C[C@H]1Cc2c(nnn2-c2ncccc2F)CN1C(=O)c1cccc(C(F)(F)F)c1Cl (single isomer, unassigned)
Prompt line: Which order do these fall in by PBMC 10 μM (% control)? Give them lowest to highest. Would you mind listing the labels in the order requested?
Response line: 3, 2, 1

[I] C[C@@H]1c2ncn(-c3ccccn3)c2CCN1C(=O)c1cccc(C(F)(F)F)c1Cl (single isomer, unassigned)
[II] C[C@H]1Cc2c(nnn2-c2ncc(F)cn2)CN1C(=O)c1ccc(F)c(Cl)c1Cl (single isomer, unassigned)
Prompt line: # return whichever of I and II has the smaller PBMC 10 μM (% control) Refer to your chosen entry by its label in the reply.
Response line: II
(II: 2.7 % control, I: 44.7 % control)

====

# SYSTEM: P2X7 (Homo sapiens (Human), UniProt Q99572)
# PROCEDURE_SUMMARY: P2X7 antagonism in human PBMCs (LPS + Bz-ATP induced IL-1β release, ELISA);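 note: PBMCs from donor human blood, with a further 1.5 h incubation of the cells in the assay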
# Type: cell-based
# CONDITION: compound 10 μM, LPS 30 ng/ml, Bz-ATP 0.5 mM
MEASURE: PBMC 10 μM (% control)

Below: 2 molecules and their reported PBMC 10 μM (% control).
CC1Cc2c(nnn2-c2ncc(F)cn2)CN1C(=O)c1cccc(Cl)c1Cl (stereo not shown) [Example 203] | 0.6
CC1c2ncn(-c3ccc(F)cn3)c2CCN1C(=O)c1cccc(C(F)(F)F)c1Cl (stereo not shown) [Example 11] | 25.2

[A] Cc1ccnc(-n2nnc3c2CCN(C(=O)c2cccc(C(F)(F)F)c2Cl)[C@@H]3C)n1 [Example 235]
[B] COc1ccnc(-n2nnc3c2CCN(C(=O)c2cccc(C(F)(F)F)c2Cl)[C@@H]3C)c1 (single isomer, unassigned) [Example 152]
Prompt line: Sorting by PBMC 10 μM (% control) in descending order, would A or B appear first? Pick one; state its label.
Response line: B

[1] C[C@@H]1c2nnn(-c3cccc(F)n3)c2CCN1C(=O)c1cccc(C(F)(F)F)c1Cl (single isomer, unassigned) [Example 146]
[2] C[C@@H]1c2ncn(-c3ncc(F)cn3)c2CCN1C(=O)c1cccc(C(F)(F)F)c1Cl (single isomer, unassigned) [Example 193]
[3] C[C@H]1c2nnn(-c3cc(F)ccn3)c2CCN1C(=O)c1cccc(C(F)(F)F)c1Cl (single isomer, unassigned) [Example 149]
[4] Cc1c(C(=O)N2CCc3c(nnn3-c3cnccn3)C2)cccc1C(F)(F)F [Example 276]
Prompt line: Reorder the items by PBMC 10 μM (% control), least to greatest. Use the labels to give the ranking in the order requested.
Response line: 4, 2, 3, 1

[I] Cc1nc2c(n1-c1ccccc1)CCN(C(=O)c1cccc(Cl)c1Cl)C2 [Example 331]
[II] CC1Cc2c(nnn2-c2cc[nH]n2)CN1C(=O)c1cccc(C(F)(F)F)c1F (stereo not shown) [Example 189]
Prompt line: Among I and II , whose measured PBMC 10 μM (% control) is the smaller figure? Identify your selection by its label.
Response line: I

[I] C[C@H]1Cc2c(nnn2-c2ncc(F)cn2)CN1C(=O)c1cccc(Cl)c1Cl (single isomer, unassigned) [Example 205]
[II] C[C@H]1c2nnn(-c3ncc(F)cn3)c2CCN1C(=O)c1ccnc(C(F)(F)F)c1Cl (single isomer, unassigned) [Example 164]
[III] C[C@@H]1Cc2c(nnn2-c2ncccc2F)CN1C(=O)c1cccc(Cl)c1Cl (single isomer, unassigned) [Example 165]
[IV] CC1Cc2c(-c3ccn[nH]3)n[nH]c2CN1C(=O)c1cccc(C(F)(F)F)c1Cl (stereo not shown) [Example 267]
Prompt line: Highest PBMC 10 μM (% control) first, then in falling order down to the smallest. Enter labels, ranked according to the request.
Response line: II, III, I, IV
(II: 98.1 % control, III: 60.7 % control, I: 17.1 % control, IV: −50.8 % control)

[1] COc1ccc(-n2nnc3c2CCN(C(=O)c2cccc(C(F)(F)F)c2Cl)C3C)nc1 (stereo not shown) [Example 145]
[2] C[C@@H]1Cc2c(nnn2-c2ncc(F)cn2)CN1C(=O)c1cccc(Cl)c1Cl (single isomer, unassigned) [Example 204]
Prompt line: # argmax over PBMC 10 μM (% control) for candidates 1 and 2 Identify your selection by its label.
Response line: 2
(2: 180.6 % control, 1: 15.2 % control)

[P] Cc1cc(C)nc(-n2nnc3c2CCN(C(=O)c2cccc(C(F)(F)F)c2Cl)C3C)c1 (stereo not shown) [Example 300]
[Q] C[C@@H]1c2nnn(-c3ncc(F)cn3)c2CCN1C(=O)c1cccc(C(F)(F)F)c1F (single isomer, unassigned) [Example 190]
Prompt line: Which one would you say has the larger PBMC 10 μM (% control) value: P , or Q ? Return value: the label identifying the chosen record.
Response line: Q
